molecular target: Bile acid receptor (Homo sapiens, UniProt Q96RI1); assay: Inhibition of FXR in HEK293 cells in presence of CDCA by GAL4 transactivation activity
pIC50: −log10 of the molar value.

Molecule: O=C(O)c1cccc(/C=C/c2ccc(OCc3c(-c4c(Cl)cccc4Cl)noc3-c3ccccc3)cc2Cl)c1
pIC50: 4.80
//
Molecule: O=C(O)c1cccc(NC(=O)c2ccc(OCc3c(-c4c(Cl)cccc4Cl)noc3-c3ccc(-c4ccccc4)cc3)cc2Cl)c1
pIC50: 5.43
//
Molecule: O=C(O)c1cccc(/C=C/c2ccc(OCc3c(-c4c(Cl)cccc4Cl)noc3-c3ccc(-c4ccccc4)cc3)cc2Cl)c1
pIC50: 4.47
//
Molecule: O=C(O)c1cccc(/C=C/c2ccc(OCc3c(-c4c(Cl)cccc4Cl)noc3-c3ccc4ccccc4c3)cc2Cl)c1
pIC50: 4.65
//
Molecule: O=C(O)c1cccc(NC(=O)c2ccc(OCc3c(-c4c(Cl)cccc4Cl)noc3-c3ccc4ccccc4c3)cc2Cl)c1
pIC50: 5.40

* * *

Target: Bile acid receptor (Homo sapiens, UniProt Q96RI1)
Sequence (Q96RI1 whole entry): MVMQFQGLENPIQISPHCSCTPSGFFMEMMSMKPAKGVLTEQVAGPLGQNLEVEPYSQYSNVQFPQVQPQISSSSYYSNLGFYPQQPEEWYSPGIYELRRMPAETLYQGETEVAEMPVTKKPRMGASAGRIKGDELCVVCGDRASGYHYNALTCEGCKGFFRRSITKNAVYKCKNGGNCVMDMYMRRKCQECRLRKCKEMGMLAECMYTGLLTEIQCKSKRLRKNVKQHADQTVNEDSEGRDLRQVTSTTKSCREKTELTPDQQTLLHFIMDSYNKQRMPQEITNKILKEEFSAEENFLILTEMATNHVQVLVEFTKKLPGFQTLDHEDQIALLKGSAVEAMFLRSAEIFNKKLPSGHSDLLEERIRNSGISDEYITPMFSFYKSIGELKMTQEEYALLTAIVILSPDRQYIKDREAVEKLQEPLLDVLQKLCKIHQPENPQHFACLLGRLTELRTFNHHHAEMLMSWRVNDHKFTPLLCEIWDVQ
Test: Agonistic activity at FXR in HEK293 cells by GAL4 transactivation activity
pEC50: −log10 of the molar value.
Reported pEC50 values follow for various molecules

Molecule: CCCNC(=O)c1cccc(/C=C/c2ccc(OCc3c(-c4c(Cl)cccc4Cl)noc3C(C)C)cc2Cl)c1
Target Entity: Bile acid receptor (Homo sapiens, UniProt Q96RI1)
pEC50: 5.05
--
Molecule: CC(C)c1onc(-c2c(Cl)cccc2Cl)c1COc1ccc(C(=O)N(Cc2ccccc2)c2cccc(C(=O)O)c2)c(Cl)c1
Target Entity: Bile acid receptor (Homo sapiens, UniProt Q96RI1)
pEC50: 5.60
--
Molecule: CC(C)c1onc(-c2c(Cl)cccc2Cl)c1COc1ccc(C(=O)Nc2cccc(C(=O)O)c2)c(Cl)c1
Target Entity: Bile acid receptor (Homo sapiens, UniProt Q96RI1)
pEC50: 5.52
--
Molecule: CC(C)(C)c1onc(-c2c(Cl)cccc2Cl)c1COc1ccc(/C=C/c2cccc(C(=O)O)c2)c(Cl)c1
Target Entity: Bile acid receptor (Homo sapiens, UniProt Q96RI1)
pEC50: 5.89
--
Molecule: CC(C)c1onc(-c2c(Cl)cccc2Cl)c1COc1ccc(C(=O)N(CCc2ccccc2)c2cccc(C(=O)O)c2)c(Cl)c1
Target Entity: Bile acid receptor (Homo sapiens, UniProt Q96RI1)
pEC50: 6.08
--
Molecule: CC(C)c1onc(-c2c(Cl)cccc2Cl)c1COc1ccc(/C=C/c2cccc(C(=O)N(Cc3ccccc3)Cc3ccccc3)c2)c(Cl)c1
Target Entity: Bile acid receptor (Homo sapiens, UniProt Q96RI1)
pEC50: 4.45
--
Molecule: CC(C)(C)c1onc(-c2c(Cl)cccc2Cl)c1COc1ccc(C(=O)Nc2cccc(C(=O)O)c2)c(Cl)c1
Target Entity: Bile acid receptor (Homo sapiens, UniProt Q96RI1)
pEC50: 5.89
--
Molecule: CC(C)c1onc(-c2c(Cl)cccc2Cl)c1COc1ccc(C(=O)N(C)c2cccc(C(=O)O)c2)c(Cl)c1
Target Entity: Bile acid receptor (Homo sapiens, UniProt Q96RI1)
pEC50: 5.51
--
Molecule: CCCN(C(=O)c1ccc(OCc2c(-c3c(Cl)cccc3Cl)noc2C(C)C)cc1Cl)c1cccc(C(=O)O)c1
Target Entity: Bile acid receptor (Homo sapiens, UniProt Q96RI1)
pEC50: 5.68
